Tested on: MS2 coat protein
assay-text: apparent KD of MS2 coat protein; designed switch direction (-1 OFF switch, 1 ON switch): 1; higher = weaker reporter binding
assay-context: input ligand: none
endpoint-name: apparent KD of MS2 coat protein (µM)
All answers are understood in µM, so give the number only.

* UGAGCCGGCACUGAGGAUAUUCAUAUUAAAACAUGAGGAUCACCCAUGUAGGCCAGAAGGCCUUGGGAGAAGGCAGGUCGGCUCA [Mat - Same State 2 - Mod of UCT - D62] (Eterna round: R96, puzzle: Same State 2) | 0.311

Moving on to the next sequence.
Task item: Field request: apparent KD of MS2 coat protein | item: AUGAAGAAUUAAGGAUAUUGAAUACAUAUGUUUAACAUGAGGAUCACCCAUGUGGGUUGCGGUAUCGAGAAGGUAAAAUAAUAG [Mat - same State NG 2 - JL mod - D91] (Eterna round: R96, puzzle: Same State NG 2)
Reply: 0.136

* * *

The sequences listed here are annotated with their apparent KD of MS2 coat protein.
Tested on: MS2 coat protein
assay-text: apparent KD of MS2 coat protein; designed switch direction (-1 OFF switch, 1 ON switch): 1; higher = weaker reporter binding
assay-context: input ligand: microRNA oligo, concentration not stated
All answers are understood in µM, so give the number only.

• GUAGCAUACCGAGGAUAUUCAUAUUACAUGAGGAUCACCCAUGUUAUAGGUCGAUUACGACCUUGGGAGAAGGCGGAAUGCUAC [Xeonanis - 20 Mod32] (Eterna round: R96, puzzle: Same State NG 2) = 0.023
• GCUCGAUGAGCGUUUUACAUGAGGAUCACCCAUGUUCGUGGGCAGGAUAUUUACGUGCGGUGUGUAGAGAAGGGCCCAUCGAGC [SameState NG3 #69] (Eterna round: R96, puzzle: Same State NG 3) = 0.247
• UGGCUCAGACGAGGAUAUAUGCGAUCACAUGAGGAUCACCCAUGUCUCGAGCUUCGGCUCGAGGCAUAGAAGGCGUCUGAGCCU [SSNG2/4-A3] (Eterna round: R96, puzzle: Same State NG 2) = 0.0259
• GUGGUCAGACAUGAGGAUCACCCAUGUGGAAUAAAUAAGGGAUAGGAUAUGGAAUAUAGGAUAUACCAGAAGGGUUGGUUGGUG (Eterna round: R96, puzzle: Same State NG 3) = 0.0876
• UAGUAUCAACGAGGAUAUAAUAUGUUCAAUUUUUUAUAUUGUUUACAUGAGGAUCACCCAUGUUAUUAGAAGGCGUAUGGGAUU [JR_SSNG2_Sub083] (Eterna round: R96, puzzle: Same State NG 2) = 0.0472
• CACAAUCUAUCUGAGGAUAUCAUGAAAAAAACAUGAGGAUCACCCAUGUGCAGGAAAACUGCAUAUGAGAAGGCAGAUAGAUUGG [salish99_SS2_r3_014] (Eterna round: R96, puzzle: Same State 2) = 0.504
• GCUGGAAACCACAUGAGGAUCACCCAUGUUCCGGAAACGGCGCAGGAUAUCUGUCCGAAAAGGUCAGAGAAGGGUGAAACCAGC [Fiskers NG3ss - 80] (Eterna round: R96, puzzle: Same State NG 3) = 0.387
• GCUACCAUUGAAGCCAACAUGAGGAUCACCCAUGUAUGUUGGUAGGAUAUCGUUUGCUUUGCAAACGAGAAGGGCUAAGGUAGC [JL SSNG3 1.27] (Eterna round: R96, puzzle: Same State NG 3) = 0.0574

Task item: Field request: apparent KD of MS2 coat protein | item: AAAAUGGUAUGUUACAUGAGGAUCACCCAUGUACUCUCCUCUGAGGAUAUGGGAAUGUUGAAAAACCAGAAGGCAGACAUCCAA [AK SSNG3-V2-22] (Eterna round: R96, puzzle: Same State NG 3)
Reply: 0.177

Task item: Further, for UGAAUGGUGAUAGGAUAUACAUGAGGAAUCCUCGUAGAAGGAUCACGACAUGAGGAUCACCCAUGUAGCCGUCCGUAGACGGCA [JL SSNG1 1.23] (Eterna round: R96, puzzle: Same State NG 1) ?
Reply: 0.778

Task item: Further, for UGACACACGGCAGGAUAUCCUUAGCAAAGCUAAGGAGAAGGGCCUCAUGUCGUGGAAACGUGACAUGAGGAUCACCCAUGUCGC [Omei SS(NG)1 Cv8] (Eterna round: R96, puzzle: Same State NG 1) ?
Reply: 0.00565

Task item: Further, for UAGUUUCAACGAGGAUAUAAUAGGUUCUAUUCGUGAUAUUGCGUACAUGAGGAUCACCCAUGUUAUUAGAAGGCGUAUGGGUUU [JR_SSNG2_Sub086] (Eterna round: R96, puzzle: Same State NG 2) ?
Reply: 0.0598

Task item: Further, for CUUCGCGCCGCAGGAUAUGCCGACCCGUGUUGAGCAGAAGGGCGAGACAUGAGGAUCACCCAUGUCUAAAGAGCGCAUCAAUAA [Esedlaedbi] (Eterna round: R96, puzzle: Same State NG 1) ?
Reply: 0.0189

Task item: Further, for AGAUGUUAAUCAGGAUAUGGGCACAUGAGGAUCACCCAUGUAACGUAGAUACGAUGUGGUCAAGUCUAGAAGGGAUGGCUAACA [SameState NG2 #79] (Eterna round: R96, puzzle: Same State NG 2) ?
Reply: 0.0682

Task item: Further, for AUUCGUUUGAUAGGAUAUCACUUUACAUGAGGAUCACCCAUGUUCACCACGCUGGUUUCUUAUACUGAGAAGGAUCUUGAUGAC [JR_SSNG2_Sub010] (Eterna round: R96, puzzle: Same State NG 2) ?
Reply: 0.0171

Task item: Further, for GAGCCAGUCCGAGGAUAUUCAUAUUAAAACAUGAGGAUCACCCAUGUAGGCUCAGAAGAGCCUUGGGAGAAGGCGGACUGGCUC [Xeonanisa] (Eterna round: R96, puzzle: Same State NG 2) ?
Reply: 0.214

Task item: Further, for AAGCUCGUGUGAGGAUAUGCCGCCGUUUCGGCUGCAGAAGGUGCUACGUUACAUGAGGAUCACCCAUGUCUCUGUUGUUUCGUA [salish99_SSNG1_r04_952] (Eterna round: R96, puzzle: Same State NG 1) ?
Reply: 0.037

Task item: Further, for AAUUUAAUACAUGAGGAUCACCCAUGUAAUACUUGUAAGAUCAAGGAUAUCAGCUCGUUUAGAGCUGAGAAGGUGAUCACAUGU [SSNG3/19-D3] (Eterna round: R96, puzzle: Same State NG 3) ?
Reply: 0.0407

Measured values drawn from the supplement of paper PMC9170038 for this set.
